Listed here: items and their measured viability increase.
test-summary: viability gain of MRP-1-high H69AR cells under doxorubicin, pilot screen, MRP-1 activator project, CellTiter-Glo, duplicate (AID 807);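 further: compound pretreatment 18-22 h then 72 h combined with doxorubicin; 0% = doxorubicin alone and 100% = vehicle without doxorubicin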
details: H69AR viability with doxorubicin, CellTiter-Glo luminescence; at 10 µM; active compounds read high
Kindly provide the numeric value in % only, without the unit symbol.

Example cases with answers are listed next.
compound: Cc1onc(-c2ccccc2)c1C(=O)Nc1sc2c(c1C#N)CCC2
unit-abbreviation: %
viability increase: -4.93
//
compound: CCN(CCCNC(=O)Cn1cc2c(n1)CCCC2)c1cccc(C)c1
unit-abbreviation: %
viability increase: -3.77
//
compound: O=C(CC1SC(=Nc2ccccc2)N(CCCCO)C1=O)NCc1ccccc1 (stereo unspecified)
unit-abbreviation: %
viability increase: -2.74
//
compound: CCCCn1c(=O)[nH]c2ccccc21
unit-abbreviation: %
viability increase: -1.44
//
compound: COc1ccc(C(C#N)(CCC#N)CCC#N)cc1OC
unit-abbreviation: %
viability increase: -1.32
//
compound: CCn1nnc(NC(=O)c2ccc(C(C)(C)C)cc2)n1
unit-abbreviation: %
viability increase: -0.53
//
compound: O=S(=O)(NCCc1cn2ccccc2n1)c1ccc2c(c1)OCCO2
unit-abbreviation: %
viability increase: -2.56
//
compound: CCN1C(=O)CC(N2CCN(c3ccc(Cl)cc3)CC2)C1=O (stereo unspecified)
unit-abbreviation: %
viability increase: 1.46
//
compound: CCOc1ccc(C2c3c(oc4ccccc4c3=O)C(=O)N2CCCN2CCOCC2)cc1OCC (stereo unspecified)
unit-abbreviation: %
viability increase: -4.89
//
compound: CC1CC(NC(=O)CCn2c(=O)oc3ccccc32)CC(C)(C)C1 (stereo unspecified)
unit-abbreviation: %
viability increase: -1.55

Query compound follows.
Entry "O=C(C1CC1)N1CCc2cc(Br)cc(S(=O)(=O)NCCCN3CCCC3)c21" : reported viability increase = ?
-2.47

====

test-summary: growth suppression of PTEN-deleted HCT116, pilot screen, cell-based, HCT116 clonal line, CellTiter-Glo (AID 824);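 further: 0% = 20 µM Hyamine control and 100% = vehicle cell control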
details: 60 h, at 10 µM, active compounds read low
Inconclusive results are not listed.
measured-attribute: viability (%)
# number only, unit % dropped from output

Below: 8 molecules and their reported viability.
molecule: Cc1cc(Nc2cc(C(=O)O)ccc2C)n2ncnc2n1
viability, %: 102
--
molecule: COc1cccc(NC(=O)CSc2nnc(-c3ccc(C)cc3)o2)c1
viability, %: 93.8
--
molecule: Cc1cc(-c2ccco2)n(CC(=O)NCc2ccco2)n1
viability, %: 100
--
molecule: CCCN(CCC)CCCNC(=O)c1cc2c(=O)n(C)c3ccccc3c2n1C
viability, %: 77.1
--
molecule: COc1ccc(N2CCN(C(=O)c3ccc(CNc4c(N5CCOCC5)c(=O)c4=O)cc3)CC2)cc1
viability, %: 98.5
--
molecule: O=C1C2CCCN2C(c2ccc(F)c(F)c2)N1c1cccc(Cl)c1 (stereo unspecified)
viability, %: 100
--
molecule: CCOC(=O)c1ccccc1NC(=O)CC1SC(=NC)N(C)C1=O (stereo unspecified)
viability, %: 96.2
--
molecule: Cc1cc(NC(=O)NC2(C(F)(F)F)Oc3ccc(Cl)cc3O2)no1 (stereo unspecified)
viability, %: 42.5

Would you kindly share the measured viability for "CCCCN(C)CCNC(=O)Cn1c(=O)sc2ccccc21" ?
96.6

Param item = "Cc1cc(C)n(CC(=O)n2c3ccccc3c3ccccc32)n1" ; retrieve measured viability.
91.7

# lookup: viability of CC(C)COC(=O)C1C2C=CC3(CN(C4CCCC4)C(=O)C13)O2 (stereo unspecified)
92.8

Where do the numbers come from? From PubChem BioAssay.
